// reported tissue uptake at 3 h per item
Assay: in vivo
Set-up: species or system mice
Details: male, NOD.Cg-Rag1tm1Mom Il2rgtm1Wjl/SzJ (NRG), mouse, iv, total radioactivity, Biodistribution: Blood
Where a SMILES comes first, the peptide text is derived from it. Bridges are numbered along the chain shown (N, C = ends). [ ]: non-standard residue; d: D form. The star is where a group is joined. X3 = O=C(O)CN1CCN(CC(=O)O)CCN(CC(=O)N[C@@H](CS(=O)(=O)O)C(=O)N[C@@H](CCCCNC(=O)CCCc2ccc(Br)cc2)C(=O)*)CCN(CC(=O)O)CC1; X5 = O=C(O)CN1CCN(CC(=O)O)CCN(CC(=O)N[C@@H](CS(=O)(=O)O)C(=O)N[C@@H](CCCCNC(=O)CCCc2ccc(Cl)cc2)C(=O)*)CCN(CC(=O)O)CC1; X1 = O=C(O)CN1CCN(CC(=O)O)CCN(CC(=O)N[C@@H](CS(=O)(=O)O)C(=O)N[C@@H](CCCCNC(=O)CCCc2ccc(I)cc2)C(=O)*)CCN(CC(=O)O)CC1; 2Nal = N[C@@H](Cc1ccc2ccccc2c1)C(=O)O; Lys(iPr) = CC(C)NCCCC[C@H](N)C(=O)O
Express it in %ID/g; write the number only.

Take a look at these entries with their results.
INSERT INTO measurements (compound, testresult) VALUES
  ('CC(C)NCCCC[C@H](NC(=O)[C@H]1CCC(=O)N[C@@H](CCCCNC(=O)[C@H](CCCCNC(=O)CCCc2ccc(Br)cc2)NC(=O)[C@H](CS(=O)(=O)O)NC(=O)CN2CCN(CC(=O)O)CCN(CC(=O)O)CCN(CC(=O)O)CC2)C(=O)N[C@@H](Cc2ccc(O)cc2)C(=O)N[C@@H](CCCCNC(C)C)C(=O)N[C@H](CCCNC(=N)N)C(=O)N[C@@H](Cc2ccc3ccccc3c2)C(=O)N[C@H](C)C(=O)N1)C(N)=O [[^177Lu]Lu-BL34L20, metal not drawn] (K(X3)Y[Lys(iPr)][dR][2Nal][dA][dE][Lys(iPr)]-NH2; lactam N-7)', 11.8),
  ('CC(C)NCCCC[C@H](NC(=O)[C@H]1CCC(=O)N[C@@H](CCCCNC(=O)[C@H](CCCCNC(=O)CCCc2ccc(Cl)cc2)NC(=O)[C@H](CS(=O)(=O)O)NC(=O)CN2CCN(CC(=O)O)CCN(CC(=O)O)CCN(CC(=O)O)CC2)C(=O)N[C@@H](Cc2ccc(O)cc2)C(=O)N[C@@H](CCCCNC(C)C)C(=O)N[C@H](CCCNC(=N)N)C(=O)N[C@@H](Cc2ccc3ccccc3c2)C(=O)N[C@H](C)C(=O)N1)C(N)=O [[^68Ga]Ga-BL34L16, metal not drawn] (K(X5)Y[Lys(iPr)][dR][2Nal][dA][dE][Lys(iPr)]-NH2; lactam N-7)', 2.7);

Switching to the query record.
*Q* Return reported tissue uptake at 3 h. Input compound: CC(C)NCCCC[C@H](NC(=O)[C@H]1CCC(=O)N[C@@H](CCCCNC(=O)[C@H](CCCCNC(=O)CCCc2ccc(I)cc2)NC(=O)[C@H](CS(=O)(=O)O)NC(=O)CN2CCN(CC(=O)O)CCN(CC(=O)O)CCN(CC(=O)O)CC2)C(=O)N[C@@H](Cc2ccc(O)cc2)C(=O)N[C@@H](CCCCNC(C)C)C(=O)N[C@H](CCCNC(=N)N)C(=O)N[C@@H](Cc2ccc3ccccc3c2)C(=O)N[C@H](C)C(=O)N1)C(N)=O [[^68Ga]Ga-BL34L11, metal not drawn] (K(X1)Y[Lys(iPr)][dR][2Nal][dA][dE][Lys(iPr)]-NH2; lactam N-7)
*A* 13.4
